Target: VEGF165 (recombinant human vascular endothelial growth factor, 165 aa form) (Homo sapiens, UniProt P15692-4 P15692-4:27-191)
Sequence (P15692 other isoform, or with tags, fused parts or gaps): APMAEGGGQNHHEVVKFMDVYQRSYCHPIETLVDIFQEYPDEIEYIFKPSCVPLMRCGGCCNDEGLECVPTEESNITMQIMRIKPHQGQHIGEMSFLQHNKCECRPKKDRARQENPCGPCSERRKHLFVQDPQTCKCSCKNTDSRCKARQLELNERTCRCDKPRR
Test: filter; PBS, 0.01% HSA, 37 C; Kd1, X1 0.76, Kd2 180 nM
Details: tags: gift from N. Ferrara, Genentech; chain copies: 2 (dimer, stated); label: 32P; bulged hairpin
Experimental: Internally-labeled RNA ligands used for binding studies were prepared by in vitro transcription using T7 RNA polymerase (Milligan et al. (1987) Nucl. Acids Res. 15:8783) and were purified on denaturing polyacrylamide gels to ensure size homogeneity. […] 5 by the non-linear least squares method using the software package Kaleidagraph (Synergy Software, Reading, Pa.). […]
READOUT_NAME: pKd
To interpret pKd, take it as minus log10 of a concentration measured in moles per litre.

Requested read-out: pKd. Entry: GGAAGGGAACCUGCGUCUCGGCACCUUCG (ssRNA) [ligand 12t] 8.96
